measurement_description: Annexin V-FITC/PI cell death analysis by flow cytometry, MSTO-211H
Format: cell-based, human
conditions: human, MSTO-211H cells, 15 μg/mL, dark, 48 h, read-out: viable cells
assay_metric: viability at 48 h, 15 μg/mL (%)
# unit: % | format: bare number

Lookup result for O=C(O)CCCCOc1cccc(-c2c3nc(c(-c4cccc(OCCCCC(=O)O)c4)c4ccc([nH]4)c(-c4cccc(OCCCCC(=O)O)c4)c4nc(c(-c5cccc(OCCCCC(=O)O)c5)c5ccc2[nH]5)C=C4)C=C3)c1 ; measured viability at 48 h, 15 μg/mL: 63.6

---

measurement_description: WST-8 cell viability assay after PDT, NCI-H28
Type: cell-based, human
conditions: human, NCI-H28 cells, NCI-H28, 5 μg/mL, dark, read-out: cell viability relative to untreated control
assay_metric: viability at 48 h, 5 μg/mL

Lookup result for O=C(O)CCCCOc1cccc(-c2c3nc(c(-c4cccc(OCCCCC(=O)O)c4)c4ccc([nH]4)c(-c4cccc(OCCCCC(=O)O)c4)c4nc(c(-c5cccc(OCCCCC(=O)O)c5)c5ccc2[nH]5)C=C4)C=C3)c1 ; measured viability at 48 h, 5 μg/mL: 116%

---

measurement_description: WST-8 cell viability assay after PDT, MSTO-211H
Type: cell-based, human
conditions: human, MSTO-211H cells, 5 μg/mL, dark, read-out: cell viability relative to untreated control
Assign viability at 48 h, 5 μg/mL to each entry below.
# unit: % | format: bare number

Lookup result for O=C(O)CCCCOc1cccc(-c2c3nc(c(-c4cccc(OCCCCC(=O)O)c4)c4ccc([nH]4)c(-c4cccc(OCCCCC(=O)O)c4)c4nc(c(-c5cccc(OCCCCC(=O)O)c5)c5ccc2[nH]5)C=C4)C=C3)c1 ; measured viability at 48 h, 5 μg/mL: 100

Lookup result for O=C(O)CCCCCOc1cccc(-c2c3nc(c(-c4cccc(OCCCCCC(=O)O)c4)c4ccc([nH]4)c(-c4cccc(OCCCCCC(=O)O)c4)c4nc(c(-c5cccc(OCCCCCC(=O)O)c5)c5ccc2[nH]5)C=C4)C=C3)c1 ; measured viability at 48 h, 5 μg/mL: 119

---

measurement_description: WST-8 cell viability assay after PDT, MSTO-211H
Type: cell-based, human
conditions: human, MSTO-211H cells, 15 μg/mL, dark, read-out: dark toxicity (cell viability)
assay_metric: viability at 48 h, 15 μg/mL (%)
# unit: % | format: bare number

Lookup result for O=C(O)CCCCOc1cccc(-c2c3nc(c(-c4cccc(OCCCCC(=O)O)c4)c4ccc([nH]4)c(-c4cccc(OCCCCC(=O)O)c4)c4nc(c(-c5cccc(OCCCCC(=O)O)c5)c5ccc2[nH]5)C=C4)C=C3)c1 ; measured viability at 48 h, 15 μg/mL: 30

---

measurement_description: Annexin V-FITC/PI cell death analysis by flow cytometry, NCI-H28
Type: cell-based, human
conditions: human, NCI-H28 cells; NCI-H28, dark, unchanged with porphyrin dose; read-out: viable cells
assay_metric: viability

Lookup result for O=C(O)CCCCOc1cccc(-c2c3nc(c(-c4cccc(OCCCCC(=O)O)c4)c4ccc([nH]4)c(-c4cccc(OCCCCC(=O)O)c4)c4nc(c(-c5cccc(OCCCCC(=O)O)c5)c5ccc2[nH]5)C=C4)C=C3)c1 ; measured viability: ~95%

---

measurement_description: WST-8 cell viability assay after PDT, MSTO-211H
Format: cell-based, human
conditions: human, MSTO-211H cells, 20 μg/mL, dark, read-out: dark toxicity (cell viability)
assay_metric: viability at 48 h, 20 μg/mL (%)
# unit: % | format: bare number

Lookup result for O=C(O)CCCCOc1cccc(-c2c3nc(c(-c4cccc(OCCCCC(=O)O)c4)c4ccc([nH]4)c(-c4cccc(OCCCCC(=O)O)c4)c4nc(c(-c5cccc(OCCCCC(=O)O)c5)c5ccc2[nH]5)C=C4)C=C3)c1 [C5SHU] ; measured viability at 48 h, 20 μg/mL: 26
